target: T1, memapsin 2 (Homo sapiens, UniProt P56817); assay: Inhibition of memapsin 2 proteolytic activity, fluorogenic substrate FS-2; format: biochemical; conditions: Table 9; read-out: Ki apparent Mep2
T1 construct: pET-11 vector-derived residues 1-15 of promemapsin 2-T1 (N, cleaved yes); made in house; host or cells: E. coli
T1 sequence (P56817 41-454 limits assumed): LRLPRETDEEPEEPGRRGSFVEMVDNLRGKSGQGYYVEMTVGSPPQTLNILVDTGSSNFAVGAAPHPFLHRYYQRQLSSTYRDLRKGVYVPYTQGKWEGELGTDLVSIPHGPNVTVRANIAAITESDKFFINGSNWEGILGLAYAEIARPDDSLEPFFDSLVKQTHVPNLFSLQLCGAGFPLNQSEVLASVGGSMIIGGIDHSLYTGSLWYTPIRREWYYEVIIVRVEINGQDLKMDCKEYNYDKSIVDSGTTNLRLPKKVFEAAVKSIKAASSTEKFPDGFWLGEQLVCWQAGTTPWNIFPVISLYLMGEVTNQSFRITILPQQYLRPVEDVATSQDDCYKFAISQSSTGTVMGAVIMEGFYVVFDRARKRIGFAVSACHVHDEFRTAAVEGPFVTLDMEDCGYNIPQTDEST
pKi: −log10 of the molar value.
Catalogue of pKi readings, one per entry.
Measured quantity: pKi

- Compound: "CSCC[C@H](NC(=O)C(C)Cn1nc(C)cc1C)C(=O)N[C@@H](CC(C)C)[C@@H](O)C[C@@H](C)C(=O)N[C@H](C(=O)NCC(C)C)C(C)C (stereo partly drawn)"
  Measured quantity: "pKi"
  Recorded value: 7.54
- Compound: "CSCC[C@H](NC(=O)[C@@H](NC(=O)OC(C)(C)C)C(C)C)C(=O)N[C@@H](CC(C)C)[C@@H](O)C[C@@H](C)C(=O)N[C@H](C(=O)NCc1ccccc1)C(C)C"
  Measured quantity: "pKi"
  Recorded value: 8.41
- Compound: "CSCC[C@H](NC(=O)OCn1nc(C)cc1C)C(=O)N[C@@H](CC(C)C)[C@@H](O)C[C@@H](C)C(=O)N[C@H](C(=O)NC(C)C)C(C)C"
  Measured quantity: "pKi"
  Recorded value: 7.61
- Compound: "CC(C)C[C@H](NC(=O)[C@H](CS(C)(=O)=O)NC(=O)[C@@H](NC(=O)OC(C)(C)C)C(C)C)[C@@H](O)C[C@@H](C)C(=O)N[C@H](C(=O)NCc1ccccc1)C(C)C"
  Measured quantity: "pKi"
  Recorded value: 7.80
- Compound: "CSCC[C@H](NC(=O)C(Cn1nc(C)cc1C)C(C)C)C(=O)N[C@@H](CC(C)C)[C@@H](O)C[C@@H](C)C(=O)N[C@H](C(=O)NCC(C)C)C(C)C (stereo partly drawn)"
  Measured quantity: "pKi"
  Recorded value: 7.56
- Compound: "CSCC[C@H](NC(=O)OCn1nc(C)cc1C)C(=O)N[C@@H](CC(C)C)[C@@H](O)C[C@@H](C)C(=O)N[C@H](C(=O)NCc1ccccc1)C(C)C"
  Measured quantity: "pKi"
  Recorded value: 7.85
